Assay: Moisture- and heat-resistances test of thin films
Assay type: physicochemical
Conditions: thin film, 80° C., relative humidity 80%, 100 hours
readout: Δλmax(b) (change in absorption maximum wavelength) (nm)
The response must be a number in nm with no trailing unit.

CCn1c([O-])c(/C=N/[N-]C(=O)c2ccc(C(F)(F)F)cc2)c(C)c(C#N)c1=O.CCn1c([O-])c(/C=N/[N-]C(=O)c2ccc(C(F)(F)F)cc2)c(C)c(C#N)c1=O.CCn1c([O-])c(/C=N/[N-]C(=O)c2ccc(C(F)(F)F)cc2)c(C)c(C#N)c1=O.CCn1c([O-])c(/C=N/[N-]C(=O)c2ccc(C(F)(F)F)cc2)c(C)c(C#N)c1=O.[Co+3].[Co+3].c1cc2ccc3ccc[n+]4c3c2[n+](c1)CCC4 : 0.5

// below: Δλmax(b) (change in absorption maximum wavelength) requested for another molecule
Read the entry CCn1c([O-])c(/C=N/[N-]C(=O)c2ccc(C(F)(F)F)cc2)c(C)c(C#N)c1=O.CCn1c([O-])c(/C=N/[N-]C(=O)c2ccc(C(F)(F)F)cc2)c(C)c(C#N)c1=O.CCn1c([O-])c(/C=N/[N-]C(=O)c2ccc(C(F)(F)F)cc2)c(C)c(C#N)c1=O.CCn1c([O-])c(/C=N/[N-]C(=O)c2ccc(C(F)(F)F)cc2)c(C)c(C#N)c1=O.[Co+3].[Co+3].c1cc[n+]2c(c1)-c1cccc[n+]1CCC2 and write its reported Δλmax(b) (change in absorption maximum wavelength).
0
